# system.name: Voltage-gated potassium channel subunit beta-2 (Rattus norvegicus) (UniProt P62483)
# Sequence (P62483 whole entry, looked up): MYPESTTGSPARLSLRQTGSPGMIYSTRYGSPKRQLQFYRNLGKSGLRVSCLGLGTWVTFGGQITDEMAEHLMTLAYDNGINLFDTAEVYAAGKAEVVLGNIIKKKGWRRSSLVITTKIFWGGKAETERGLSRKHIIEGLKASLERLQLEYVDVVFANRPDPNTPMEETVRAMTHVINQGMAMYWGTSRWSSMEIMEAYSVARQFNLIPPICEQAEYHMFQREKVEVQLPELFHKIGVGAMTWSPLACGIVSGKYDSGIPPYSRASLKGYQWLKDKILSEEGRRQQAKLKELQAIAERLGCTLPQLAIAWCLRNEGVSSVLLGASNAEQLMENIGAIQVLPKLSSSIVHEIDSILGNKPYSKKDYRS
# measurement.description: enhancers of rat Kvbeta2 NADPH turnover – biochemical, NADPH fluorescence, primary screen (AID 623);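 also: fluorescence intensity change per second fitted from 20 to 320 s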
# experimental.conditions: Recombinant KvBeta, NADPH fluorescence decrease slope, 10 min; at 10 µM; stronger effect = lower value

- compound: "Cc1cc(=O)oc2cc(OCC#N)ccc12"
  NADPH fluorescence slope: "-3.5e-05"
- compound: "Cc1cccc(C2CC(c3ccc(Br)cc3)Nc3nc(N)nn32)c1 (stereo unspecified)"
  NADPH fluorescence slope: "-5.3e-05"
- compound: "Cc1cc(C(=O)OCCO)c(C#N)c(N)n1"
  NADPH fluorescence slope: "1.2e-05"
- compound: "O=S(=O)(NCc1ccc(Cl)cc1)c1cnc[nH]1"
  NADPH fluorescence slope: "-2e-05"
- compound: "CC(=O)OC(C(=O)NC1CCCCC1)c1ccncc1 (stereo unspecified)"
  NADPH fluorescence slope: "-3e-05"
- compound: "CC(=O)C(Sc1ncnc2c1nnn2-c1ccc(F)cc1)C(=O)N(C)C (stereo unspecified)"
  NADPH fluorescence slope: "-1.7e-05"

====

# measurement.description: inhibitors of TNFa-induced NFkB p65 translocation, primary screen, imaging, HUVEC, MLSMR starter and 10KST1 sets (AID 438);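 also: compound added about 3h40 before a 20 min TNFalpha stimulation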
# experimental.conditions: HUVEC TNFa-induced p65 nuclear translocation; measured here: nuclei count (cytotoxicity indicator), at 2.08 µM
Parameter threshold = 600. Response is Criterion met when cell count meets or exceeds it, else Criterion not met.

- compound: "CCOC(=O)c1cc(C(C)(C)C)oc1CN"
  category: "Criterion met"
- compound: "O=C(NCC(=O)N(Cc1cccs1)C(C(=O)NC1CCCC1)c1ccncc1)c1ccco1 (stereo unspecified)"
  category: "Criterion not met"
- compound: "O=C(OCC(=O)N1CCC(Cc2ccccc2)CC1)c1ccc[nH]c1=O"
  category: "Criterion not met"
- compound: "O=C(C1CCC(CNc2c(N3CCCCC3)c(=O)c2=O)CC1)N1CCc2ccccc2C1 (stereo unspecified)"
  category: "Criterion not met"
- compound: "CCN(CC)CCCN1C(=O)C(O)=C(C(=O)c2ccco2)C1c1ccc(C)o1 (stereo unspecified)"
  category: "Criterion not met"
- compound: "Cc1ccc(NC(=O)C2CCCN(S(=O)(=O)c3cnc[nH]3)C2)cc1C (stereo unspecified)"
  category: "Criterion met"
- compound: "CC(C)Oc1ccc(N2CC(C(=O)Nc3ccccc3F)CC2=O)cc1 (stereo unspecified)"
  category: "Criterion met"
- compound: "COc1ccc(C2c3c(oc4ccccc4c3=O)C(=O)N2Cc2ccncc2)cc1OC (stereo unspecified)"
  category: "Criterion met"
- compound: "Oc1ccc(N2CCN(C(c3ccncc3)c3nnnn3C3CCCC3)CC2)cc1 (stereo unspecified)"
  category: "Criterion met"
- compound: "COc1ccc(CCNC(=O)CSCc2n[nH]c(=O)[nH]2)cc1OC"
  category: "Criterion not met"

====

Collected inhibition values appear next to each entry.
# measurement.description: TLR3 IRF3 reporter activation blockers – cell-based, poly I:C stimulus, luciferase, 10K MLSCN set, primary screen (AID 602277)
# experimental.conditions: HEK293-TLR3 RL24 IRF3 luciferase reporter, at 10 µM, stronger effect = higher value
The source made the active and inactive calls.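 Rule for the calls: active = inhibition of the reporter signal at or above 50%; inactive = inhibition below 50%.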

- molecule: "Cc1nc2c(-c3ccccc3)c(C)nn2c(C)c1CCC(=O)NCc1ccco1"
  inhibition: "31.1% (inactive)"
- molecule: "CN(c1ccccc1)S(=O)(=O)c1ccc(C(=O)OCC(=O)N2CCOCC2)cc1"
  inhibition: "22% (inactive)"
- molecule: "CC(NC(=O)Cc1cccs1)c1ccc2c(c1)OCO2 (stereo unspecified)"
  inhibition: "4.01% (inactive)"
- molecule: "O=C1CC(C(=O)Nc2ccc(Br)cc2)C2(CCCC2)O1 (stereo unspecified)"
  inhibition: "11.8% (inactive)"
- molecule: "O=C(CN1C(=O)c2ccccc2C1=O)Nc1ccccc1C(=O)N1CCCC1"
  inhibition: "11.3% (inactive)"
- molecule: "CCC1CCCCN1C(=O)C1CC(c2cc(Cl)c(OC)cc2OC)=NO1 (stereo unspecified)"
  inhibition: "-30.3% (inactive)"
- molecule: "C/C(=N\\O)C(=O)C(CN1CCCCC1)CN1CCCCC1"
  inhibition: "25.3% (inactive)"
- molecule: "CCn1c(=O)cc(OCC(=O)Nc2nc(C)cs2)c2ccccc21"
  inhibition: "32.8% (inactive)"
- molecule: "CCCOC(=O)c1[nH]c2c(c1C)C(=O)CC(c1cc(OC)c(OC)c(OC)c1)C2 (stereo unspecified)"
  inhibition: "-18.2% (inactive)"
- molecule: "COC(=O)c1cccc(S(=O)(=O)N2CCC(C)CC2)c1"
  inhibition: "-2.56% (inactive)"
- molecule: "CCOC(=O)C(C(C)=O)c1nc(C)nc2c1nnn2Cc1ccccc1Cl (stereo unspecified)"
  inhibition: "-19.4% (inactive)"
